Kindly supply the reported relative viability values for the records listed here.
Tested on: SW982
experiment: relative viability vs DMSO control (72 h) (fraction); higher = more viable cells
cond: 0.00051 µM

Prompt line: Look up relative viability: CN1CCC(COc2cnc(-c3cccc(Cn4nc(-c5cccc(C#N)c5)ccc4=O)c3)nc2)CC1
Response line: 1.07

Prompt line: Another: CC[C@H](Nc1ncnc2[nH]cnc12)c1nc2cccc(F)c2c(=O)n1-c1ccccc1
Response line: 1.06

Prompt line: Another: N#CC[C@H](C1CCCC1)n1cc(-c2ncnc3[nH]ccc23)cn1
Response line: 0.971

Prompt line: Another: CC(C)(C)c1cc(NC(=O)Nc2ccc(-c3cn4c(n3)sc3cc(OCCN5CCOCC5)ccc34)cc2)no1
Response line: 1.05

Prompt line: Another: C[C@@H]1CCN(C(=O)CC#N)C[C@@H]1N(C)c1ncnc2[nH]ccc12
Response line: 1.05

Prompt line: Another: CNC(=O)c1cc(Oc2ccc(NC(=O)Nc3ccc(Cl)c(C(F)(F)F)c3)c(F)c2)ccn1
Response line: 1.09

====

System: SW684
experiment: relative viability vs DMSO control (72 h) (fraction); higher = more viable cells
cond: 1.111 µM
reported metric: relative viability
No unit in the answer, please; the number alone is enough.

Prompt line: Look up relative viability: COCc1c(-c2cc3cc(C)cc(OC)c3s2)c2c(N)ncnn2c1CN1CCNC(=O)C1 [Rogaratinib]
Response line: 1.09

Prompt line: Another: COc1c(OCCCN2CCOCC2)ccc2c1N=C(NC(=O)c1cnc(N)nc1)N1CCN=C21 [Copanlisib]
Response line: 0.425

Prompt line: Another: C[C@]1(O)C[C@@H](c2nc(-c3ccc4ccc(-c5ccccc5)nc4c3)c3c(N)nccn32)C1 [Linsitinib]
Response line: 1.09

Prompt line: Another: CO[C@H]1C[C@@H]2CC[C@@H](C)[C@@](O)(O2)C(=O)C(=O)N2CCCC[C@H]2C(=O)O[C@H]([C@H](C)C[C@@H]2CC[C@@H](OP(C)(C)=O)[C@H](OC)C2)CC(=O)[C@H](C)/C=C(\C)[C@@H](O)[C@@H](OC)C(=O)[C@H](C)C[C@H](C)/C=C/C=C/C=C/1C [Ridaforolimus]
Response line: 0.833

Prompt line: Another: Cc1nc(NC(=O)N2CCC[C@H]2C(N)=O)sc1-c1ccnc(C(C)(C)C(F)(F)F)c1 [Alpelisib]
Response line: 0.876

====

System: KHOS-240S
experiment: relative viability vs DMSO control (72 h) (fraction); higher = more viable cells
cond: 0.1235 µM
Kindly supply the reported relative viability values for the records listed here.
No unit in the answer, please; the number alone is enough.

Prompt line: What is its relative viability for KHOS-240S? Entry: C[C@@H](c1ccc2nccn2c1)n1nnc2ncc(-c3cnn(C)c3)nc21
Response line: 1.09

Prompt line: Another: C=CC(=O)N1CCC[C@@H](n2nc(-c3ccc(Oc4ccccc4)cc3)c3c(N)ncnc32)C1
Response line: 1.05

Prompt line: Another: CCc1cc2c(cc1N1CCC(N3CCOCC3)CC1)C(C)(C)c1[nH]c3cc(C#N)ccc3c1C2=O
Response line: 1.05

====

Test system: HT1080
experiment: relative viability vs DMSO control (72 h) (fraction); higher = more viable cells
cond: 3.333 µM
Kindly supply the reported relative viability values for the records listed here.
No unit in the answer, please; the number alone is enough.

Prompt line: Look up relative viability: CNC(=O)c1cc(Oc2ccc(NC(=O)Nc3ccc(Cl)c(C(F)(F)F)c3)c(F)c2)ccn1
Response line: 0.952

Prompt line: Another: C=CC(=O)N1CCC([C@@H]2CCNc3c(C(N)=O)c(-c4ccc(Oc5ccccc5)cc4)nn32)CC1
Response line: 1.02

Prompt line: Another: COc1cc2/c(=N/c3ccc(Br)cc3F)nc[nH]c2cc1OCC1CCN(C)CC1
Response line: 0.962

Prompt line: Another: C=CC(=O)Nc1cccc(Oc2nc(Nc3ccc(N4CCN(C)CC4)cc3)nc3ccsc23)c1
Response line: 1.03

Prompt line: Another: Cc1cc(Nc2ncnc3ccc(NC4=NC(C)(C)CO4)cc23)ccc1Oc1ccn2ncnc2c1
Response line: 1.06

Prompt line: Another: COc1c(OCCCN2CCOCC2)ccc2c1N=C(NC(=O)c1cnc(N)nc1)N1CCN=C21
Response line: 0.342

Prompt line: Another: CC[C@H](Nc1ncnc2[nH]cnc12)c1nc2cccc(F)c2c(=O)n1-c1ccccc1
Response line: 1.08

Prompt line: Another: CCc1cc2c(cc1N1CCC(N3CCOCC3)CC1)C(C)(C)c1[nH]c3cc(C#N)ccc3c1C2=O
Response line: 1.07

Prompt line: Another: C[C@@H]1CCN(C(=O)CC#N)C[C@@H]1N(C)c1ncnc2[nH]ccc12
Response line: 1.03

====

System: VA-ES-BJ
experiment: standardised AUC of viability dose-response curve (72 h) (fraction (0-1)); higher = less growth inhibition (more resistant)
reported metric: standardised AUC
No unit in the answer, please; the number alone is enough.

Prompt line: Look up standardised AUC: C=CC(=O)Nc1cccc(Oc2nc(Nc3ccc(N4CCN(C)CC4)cc3)nc3ccsc23)c1
Response line: 0.939

Prompt line: Another: C[C@]1(O)C[C@@H](c2nc(-c3ccc4ccc(-c5ccccc5)nc4c3)c3c(N)nccn32)C1
Response line: 0.936

Prompt line: Another: O=C(Nc1cnn2ccc(N3CCC[C@@H]3c3cc(F)ccc3F)nc12)N1CC[C@H](O)C1
Response line: 0.969

Prompt line: Another: C[C@@H]1COCCN1c1cc(-c2ccnn2C)c2ccnc(-c3ccn[nH]3)c2n1
Response line: 0.626

Prompt line: Another: COc1cc2nccc(Oc3ccc(NC(=O)Nc4cc(C)on4)c(Cl)c3)c2cc1OC
Response line: 0.995

Prompt line: Another: Cn1cnc2c(F)c(Nc3ccc(Br)cc3F)c(C(=O)NOCCO)cc21
Response line: 0.895

Prompt line: Another: N#CC[C@H](C1CCCC1)n1cc(-c2ncnc3[nH]ccc23)cn1
Response line: 0.973

Prompt line: Another: C=CC(=O)N1CCC([C@@H]2CCNc3c(C(N)=O)c(-c4ccc(Oc5ccccc5)cc4)nn32)CC1
Response line: 0.973

Prompt line: Another: Cc1nc(NC(=O)N2CCC[C@H]2C(N)=O)sc1-c1ccnc(C(C)(C)C(F)(F)F)c1
Response line: 0.852

Prompt line: Another: CC(C)NC(=O)C1CCC(n2c(NC(=O)c3ccc(F)cc3)nc3ccc(CN4CCC(C(C)(C)O)CC4)cc32)CC1 (stereo not given)
Response line: 0.835

====

System: A204
experiment: relative viability vs DMSO control (72 h) (fraction); higher = more viable cells
cond: 0.00457 µM
Where a name gives a salt, the structure may show the parent alone.
# if measured relative viability < 1: Criterion met  # else: Criterion not met

Prompt line: Please check: relative viability for COc1cccc2c1C(=O)c1c(O)c3c(c(O)c1C2=O)C[C@@](O)(C(=O)CO)C[C@@H]3O[C@H]1C[C@H](N)[C@H](O)[C@H](C)O1 [Doxorubicin Hydrochloride] , strictly under 1 or not?
Response line: Criterion met

Prompt line: Another: COc1c(OCCCN2CCOCC2)ccc2c1N=C(NC(=O)c1cnc(N)nc1)N1CCN=C21
Response line: Criterion met

Prompt line: Another: COCc1c(-c2cc3cc(C)cc(OC)c3s2)c2c(N)ncnn2c1CN1CCNC(=O)C1
Response line: Criterion not met

Prompt line: Another: CO[C@H]1C[C@@H]2CC[C@@H](C)[C@@](O)(O2)C(=O)C(=O)N2CCCC[C@H]2C(=O)O[C@H]([C@H](C)C[C@@H]2CC[C@@H](OP(C)(C)=O)[C@H](OC)C2)CC(=O)[C@H](C)/C=C(\C)[C@@H](O)[C@@H](OC)C(=O)[C@H](C)C[C@H](C)/C=C/C=C/C=C/1C
Response line: Criterion met

====

Tested on: KHOS-NP
experiment: relative viability vs DMSO control (72 h) (fraction); higher = more viable cells
cond: 0.04115 µM
Kindly supply the reported relative viability values for the records listed here.
No unit in the answer, please; the number alone is enough.

Prompt line: Look up relative viability: Cc1cc(C)c(/C=C2\C(=O)Nc3ccccc32)[nH]1
Response line: 1.05

Prompt line: Another: Cc1ccc(NC(=O)c2ccc(CN3CCN(C)CC3)cc2)cc1Nc1nc(-c2cccnc2)cs1
Response line: 1.09

Prompt line: Another: CNC(=O)c1cc(Oc2ccc(NC(=O)Nc3ccc(Cl)c(C(F)(F)F)c3)c(F)c2)ccn1
Response line: 1.1

Prompt line: Another: O=C(Cc1ccc(-c2ccc(OCCN3CCOCC3)cc2)cn1)NCc1ccccc1
Response line: 1.04

Prompt line: Another: CC(C)N1CCN(Cc2cnc(-c3cc(-c4cccc5[nH]ccc45)cc4[nH]ncc34)o2)CC1
Response line: 1.02

Prompt line: Another: CN1CCN(c2ccc3nc(-c4c(N)c5c(F)cccc5[nH]c4=O)[nH]c3c2)CC1
Response line: 1.11

Prompt line: Another: C=CC(=O)Nc1cccc(Oc2nc(Nc3ccc(N4CCN(C)CC4)cc3)nc3ccsc23)c1
Response line: 1.08
